Values compiled from paper PMC5540273.

- Test system: TRPM6;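 further: kd values determined as follow-up on hits from a single-replicate KINOMEscan panel screen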

molecule	Kd
CCn1cnc2c(N)ncnc21 [GW345098]	240 nM

###

Catalogue of molecules with associated %Inh
- Tested on: PHKG2
- measurement-parameters: concentration: 1 μM, replicates: in singlicate; n = 1

cpd-smiles	%Inh (%)
O=C1Cc2cc(Nc3nc(NCc4cccc(S(=O)(=O)C(F)(F)F)c4)ncc3C(F)(F)F)ccc2N1	0
Cl.Oc1cccc(Nc2ccnc3cc(-c4ccncc4)ccc23)c1	0
NS(=O)(=O)c1cccc(-c2ccc3nccc(-c4cccc(S(N)(=O)=O)c4)c3c2)c1	5
COc1ccc(Nc2ncc(C#N)c(Nc3ccccc3C(N)=O)n2)cc1N1CCN(C)CC1.Cl	85

###

- Tested on: CAMK2A
- measurement-parameters: concentration: 1 μM, replicates: in singlicate; n = 1
Output y for %Inh not less than 3%; output n otherwise.

compound	assigned-class
NCC(NC(=O)c1cc(-c2cn[nH]c2)c(-c2ccnc3[nH]ccc23)s1)c1ccccc1.O=C(O)C(F)(F)F.O=C(O)C(F)(F)F (stereo not drawn)	n
Cl.Oc1cccc(Nc2ccnc3cc(-c4ccncc4)ccc23)c1	n
COC(=O)Nc1nc2cc(Oc3ccc(NC(=O)Nc4cc(F)ccc4F)cc3)ccc2[nH]1.Cl	n
N#Cc1c(N2CCOCC2)sc(-c2ccn[nH]2)c1-c1ccc(Cl)cc1	n
Cc1ccc(C(=O)NCC(N)=O)cc1-n1c(C)cc(OCc2ccc(F)cc2F)c(Br)c1=O	y
CNc1ncnc2[nH]ncc12	n
COCCNC(=O)c1ccc(-c2cc(C(=O)NC3CC3)cc(F)c2C)cc1	y
Fc1ccc(-c2ncn(CCCN3CCOCC3)c2-c2ccccn2)cc1	y

###

- Tested on: CAMK1B
- measurement-parameters: concentration: 1 μM, replicates: in singlicate; n = 1
Here the recorded %Inh is given for each entry.
recorded-metric: %Inh (%)

compound	system-tested	value-observed
Nc1nccc(-c2c(-c3ccc(F)cc3)ncn2C2CCN(CC(F)(F)F)CC2)n1	CAMK1B	80
NS(=O)(=O)c1cccc(-c2ccc3nccc(-c4cccc(S(N)(=O)=O)c4)c3c2)c1	CAMK1B	0
COc1ccc(CNC(=O)NC2CCN(c3ccnc(Nc4ccc(OC)cc4)n3)C2)cc1 (stereo not shown)	CAMK1B	47
Cc1cccc(-c2nc(Nc3ccc4ncsc4c3)c3ccccc3n2)n1	CAMK1B	21
CN(C1=C(c2ccccc2)C(=O)NC1=O)c1ccccc1	CAMK1B	34
O=C(Nc1n[nH]c2cc(-c3cccc(F)c3)ccc12)C1CC1	CAMK1B	0
CCc1ccnc(/C=C/c2n[nH]c3cc(Sc4ccccc4C(=O)NC)ccc23)c1	CAMK1B	8
N#Cc1c(N2CCOCC2)sc(-c2ccn[nH]2)c1-c1ccc(Cl)cc1	CAMK1B	12
COCCNC(=O)c1ccc(-c2cc(C(=O)NC3CC3)cc(F)c2C)cc1	CAMK1B	5
N#Cc1ccc(-c2cc(-c3c[nH]nc3-c3ccccn3)ccn2)cc1	CAMK1B	3

###

The entries below are paired with their reported %Inh.
- Tested on: PKAC-alpha
- Construct: gene PRKACA
- measurement-parameters: concentration: 1 μM, replicates: in singlicate; n = 1
recorded-metric: %Inh

compound	recorded-metric	value-observed
Cc1c(Cn2c(C)nn3c(=O)cc(N4CCOC(C)C4)nc23)cccc1C(F)(F)F (stereo not shown)	%Inh	4%
COc1ccc(Nc2ncc(C#N)c(Nc3ccccc3C(N)=O)n2)cc1N1CCN(C)CC1.Cl	%Inh	76%
Cc1nnc(-c2ccc3occ(-c4ccc(C(C)O)cc4)c3c2)o1 (stereo not shown)	%Inh	7%
N#Cc1c(N2CCOCC2)sc(-c2ccn[nH]2)c1-c1ccc(Cl)cc1	%Inh	0%
COc1ccc(COc2cc(-n3cnc4ccccc43)sc2C(N)=O)cc1	%Inh	0%
N#Cc1ccc(-c2cc(-c3c[nH]nc3-c3ccccn3)ccn2)cc1	%Inh	0%
Cc1cccc(-c2nc(-c3ccc(S(C)(=O)=O)cc3)sc2-c2ccncc2)c1	%Inh	0%
O=C1NC(=O)C(N2CCc3ccccc32)=C1c1cccc(Cl)c1	%Inh	11%
CN1c2ccc(NCc3ccc(F)cc3)cc2-c2c(cnn2C)S1(=O)=O	%Inh	9%
NCC(NC(=O)c1cc(-c2cn[nH]c2)c(-c2ccnc3[nH]ccc23)s1)c1ccccc1.O=C(O)C(F)(F)F.O=C(O)C(F)(F)F (stereo not shown)	%Inh	98.7%
CN1c2ccc(CNc3ccc(F)cc3)cc2-c2c(cnn2C)S1(=O)=O	%Inh	5%
Cc1nnc(-c2ccc(C)c(-c3ccc(C(=O)Nc4ccc(NS(C)(=O)=O)cc4)cc3)c2)o1	%Inh	0%
COc1ccc(S(=O)(=O)NC2CCN(c3cc(C)nc(Nc4cccc(C#N)c4)n3)CC2)cc1.O=C(O)C(F)(F)F	%Inh	0%
Cc1c2ccc(N(C)c3ccnc(Nc4cccc(S(N)(=O)=O)c4)n3)cc2nn1Cc1ccccc1.Cl.Cl	%Inh	17%
COc1ccc(Nc2nccc(N3CCC(NC(=O)Nc4cccc(C(C)=O)c4)C3)n2)cc1 (stereo not shown)	%Inh	2%
Cn1ccc2ncnc(Oc3ccc(NC(=O)Nc4ccncc4)c(Cl)c3)c21	%Inh	1%
COc1ccc(Nc2nccc(N3CCC(NC(=O)Nc4cc(C)ccc4C)C3)n2)cc1 (stereo not shown)	%Inh	0%
O=C1Cc2cc(Nc3nc(NCc4cccc(S(=O)(=O)C(F)(F)F)c4)ncc3C(F)(F)F)ccc2N1	%Inh	0%
Nc1nccc(-c2c(-c3ccc(F)cc3)ncn2C2CCN(CC(F)(F)F)CC2)n1	%Inh	0%
CC(=O)Nc1ccc(COc2ccc(Nc3ccnc4cc(-c5ccccn5)ccc34)cc2)cc1.Cl	%Inh	0%
O=C(Nc1cccc(-c2nn3ncccc3c2-c2ccnc(Nc3cccc(C(F)(F)F)c3)n2)c1)c1c(F)cccc1F	%Inh	12%
NS(=O)(=O)c1cccc(-c2ccc3nccc(-c4cccc(S(N)(=O)=O)c4)c3c2)c1	%Inh	0%
NS(=O)(=O)c1cccc(-c2ccc3ncc(N4CCOCC4)nc3c2)c1	%Inh	0%
O=c1cc(N2CCOCC2)nc2n(Cc3cccc4ccccc34)ccn12	%Inh	0%
O=C(NCCNc1ccnc(Nc2ccc(F)cc2)n1)c1cc2ccccc2s1	%Inh	0%
Cc1ccc(NC(=O)c2ccnc(N3CCN(C)CC3)c2)cc1-c1ccc(C(=O)NCC2CC2)cc1	%Inh	0%
CCc1ccnc(/C=C/c2n[nH]c3cc(Sc4ccccc4C(=O)NC)ccc23)c1	%Inh	0%
COc1cc2c(cc1OC[C@@H](O)CO)ncc1c3ccc(C#N)cc3[nH]c21	%Inh	0%
O=c1cc(N2CCOCC2)nc2n(Cc3cccc(F)c3)ccn12	%Inh	12%
CCc1nc(-c2cccc(C)c2)c(-c2ccnc(NCc3ccccc3)c2)s1	%Inh	0%
c1ccc(-c2cc(-c3c[nH]nc3-c3ccccn3)ccn2)cc1	%Inh	5%
Cn1cc(-c2ccc3c(c2)CCN3C(=O)Cc2ccccc2Cl)c2c(N)ncnc21	%Inh	45%
C[C@@H](Oc1cc(-n2cnc3ccc(NC(=O)NC(C)(C)C)cc32)sc1C(N)=O)c1ccccc1Cl	%Inh	4%
O=C(Nc1n[nH]c2cc(-c3cccc(F)c3)ccc12)C1CC1	%Inh	3%

###

- System: TLK1
- measurement-parameters: concentration: 1 μM, replicates: in singlicate; n = 1
Consider the cut-off 10%. If the recorded %Inh is strictly smaller, the label is Met; if not, the label is Not met.

molecule	assigned-class
Cl.Oc1cccc(Nc2ccnc3cc(-c4ccncc4)ccc23)c1 [GW494601]	Met
COc1cc(Nc2nccc(N3CCC(NC(=O)c4cccc(NC(C)=O)c4)C3)n2)cc(OC)c1OC (stereo not shown) [GSK1379754]	Met
CCn1cnc2c(N)ncnc21 [GW345098]	Not met
CC(C)(C)n1cnc2c(N)ncnc21 [SKF-97359]	Not met
COCCNC(=O)c1ccc(-c2cc(C(=O)NC3CC3)cc(F)c2C)cc1 [GW868318]	Not met
CN(C(=O)c1ccc(-c2cc(-c3c[nH]nc3-c3ccccn3)ccn2)cc1)C1CCOCC1 [GW810083]	Met
COc1cc2c(cc1OC[C@@H](O)CO)ncc1c3ccc(C#N)cc3[nH]c21	Not met
CCCCCc1nc2c(N)ncnc2n1CCCCC [SKF-97255]	Met
CNc1ncnc2[nH]ncc12 [SKF-18355]	Met

###

- Tested on: INSR
- measurement-parameters: concentration: 1 μM, replicates: in singlicate; n = 1
# maps each entry to its %Inh

compound	unit-descriptor	%Inh
O=C1NC(=O)C(N2CCc3ccccc32)=C1c1cccc(Cl)c1	%	0
CC(=O)Nc1ccc(COc2ccc(Nc3ccnc4cc(-c5ccccn5)ccc34)cc2)cc1.Cl	%	12
Cc1c(Cn2c(C)nn3c(=O)cc(N4CCOC(C)C4)nc23)cccc1C(F)(F)F (stereo not drawn)	%	17

###

- Test system: EIF2AK1
- measurement-parameters: concentration: 1 μM, replicates: in singlicate; n = 1

compound	system-tested	%Inh
Cc1nnc(-c2ccc3occ(-c4ccc(C(C)O)cc4)c3c2)o1 (centres unmarked)	EIF2AK1	0%
CCc1ccnc(/C=C/c2n[nH]c3cc(Sc4ccccc4C(=O)NC)ccc23)c1	EIF2AK1	14%
Cc1ccc(C(=O)NCC(N)=O)cc1-n1c(C)cc(OCc2ccc(F)cc2F)c(Br)c1=O	EIF2AK1	0%
COc1cc2ncn(-c3cc(OCc4sccc4Cl)c(C(N)=O)s3)c2cc1OC [GSK448459]	EIF2AK1	0%
Cc1cccc(Cn2ccn3c(=O)cc(N4CCOCC4)nc23)c1 [GSK2297542]	EIF2AK1	11%
